biological target: TMPRSS4 serine protease (Homo sapiens); construct: TMPRSS4 serine protease domain (205th Val˜437th Leu) was cloned in pET21b/NdeI-XhoI; inferred from pET21b XhoI cloning and Ni-NTA purification) (C); made in house; host or cells: E. coli BL21 (DE3); test: Inhibitory effect on TMPRSS4 serine protease activity using peptide substrate; assay type: biochemical; conditions: 30 uM compound; kallikrein peptide substrate 100 μM; DMSO negative control; read-out: Intracellular protease activity Inhibition % 30 uM
# inhibition at 30 µM per record follows
Reply numerically in %, unit not repeated.

Previously resolved entries follow.
COc1c(C(F)(F)F)cc(NC(=O)c2cc(Cl)ccc2O)cc1C(F)(F)F [Example 39] :: 80
O=C(Nc1ccc(Cl)c(C(F)(F)F)c1)c1cc(Cl)ccc1O [Example 32] :: 95

Could you share which inhibition at 30 µM value was measured for O=C(Nc1cc(C(F)(F)F)cc(C(F)(F)F)c1)c1cccc(Cl)c1O [Example 26] ?
93

Could you share which inhibition at 30 µM value was measured for O=C(Nc1cc(C(F)(F)F)cc(C(F)(F)F)c1)c1cc(-c2ccc(F)cc2F)ccc1O [Example 30] ?
31

Could you share which inhibition at 30 µM value was measured for O=C(Nc1cc(C(F)(F)F)cc(C(F)(F)F)c1)c1cc(F)ccc1O [Example 14] ?
55

###

# inhibition at 30 µM per record follows
target: TMPRSS4 serine protease (Homo sapiens); construct: TMPRSS4 serine protease domain (205th Val˜437th Leu) was cloned in pET21b/NdeI-XhoI; inferred from pET21b XhoI cloning and Ni-NTA purification) (C); made in house; host or cells: E. coli BL21 (DE3); experiment: Inhibitory effect on TMPRSS4 serine protease activity using peptide substrate; type: biochemical; settings: 30 uM compound; kallikrein peptide substrate 100 μM; DMSO negative control; read-out: Intracellular protease activity Inhibition % 30 uM
Reply numerically in %, unit not repeated.

O=C(Nc1cc(C(F)(F)F)cc(C(F)(F)F)c1)c1cc(Cl)ccc1O :: 96
O=C(Nc1cc(C(F)(F)F)cc(C(F)(F)F)c1)c1ccccc1O :: 20

Could you share which inhibition at 30 µM value was measured for O=C(Nc1cc(C(F)(F)F)cc(C(F)(F)F)c1)c1cc(Cl)cnc1O ?
19

Could you share which inhibition at 30 µM value was measured for N#Cc1ccc(O)c(C(=O)Nc2cc(C(F)(F)F)cc(C(F)(F)F)c2)c1 ?
53

Could you share which inhibition at 30 µM value was measured for O=C(Nc1ccc(F)c(C(F)(F)F)c1)c1cc(Cl)ccc1O ?
86

###

molecular target: TMPRSS4 serine protease (Homo sapiens); construct: TMPRSS4 serine protease domain (205th Val˜437th Leu) was cloned in pET21b/NdeI-XhoI; inferred from pET21b XhoI cloning and Ni-NTA purification) (C); made in house; host or cells: E. coli BL21 (DE3); experiment: Inhibitory effect on TMPRSS4 serine protease activity using peptide substrate; format: biochemical; details: 100 uM compound; kallikrein peptide substrate 100 μM; DMSO negative control; read-out: Intracellular protease activity Inhibition % 100 uM
# inhibition at 100 µM per record follows
Reply numerically in %, unit not repeated.

O=C(Nc1cc(C(F)(F)F)ccc1F)c1cc(Cl)ccc1O :: 100
N#Cc1cccc(NC(=O)c2cc(Cl)ccc2O)c1 :: 88
Cc1cc(C)cc(NC(=O)c2cc(Cl)ccc2O)c1 :: 56

Find inhibition at 100 µM (TMPRSS4 serine protease (Homo sapiens)) for the entry O=C(Nc1ncccn1)c1cc(Cl)ccc1O
2

Find inhibition at 100 µM (TMPRSS4 serine protease (Homo sapiens)) for the entry O=C(Nc1ccc(F)c(C(F)(F)F)c1)c1cc(Cl)ccc1O
98

Find inhibition at 100 µM (TMPRSS4 serine protease (Homo sapiens)) for the entry Cc1csc(NC(=O)c2cc(Cl)ccc2O)n1
67

Find inhibition at 100 µM (TMPRSS4 serine protease (Homo sapiens)) for the entry O=C(Nc1ccc(C(F)(F)F)cn1)c1cc(Cl)ccc1O
47

Find inhibition at 100 µM (TMPRSS4 serine protease (Homo sapiens)) for the entry O=C(Nc1cc(C(F)(F)F)ccc1Cl)c1cc(Cl)ccc1O
100

Find inhibition at 100 µM (TMPRSS4 serine protease (Homo sapiens)) for the entry COc1cc(NC(=O)c2cc(Cl)ccc2O)cc(C(F)(F)F)c1
99

Find inhibition at 100 µM (TMPRSS4 serine protease (Homo sapiens)) for the entry O=C(Nc1nc(-c2ccccc2)cs1)c1cc(Cl)ccc1O
98

###

molecular target: TMPRSS4 serine protease (Homo sapiens, UniProt Q9NRS4); construct: TMPRSS4 serine protease domain (205th Val˜437th Leu) was cloned in pET21b/NdeI-XhoI; inferred from pET21b XhoI cloning and Ni-NTA purification) (C); made in house; host or cells: E. coli BL21 (DE3); assay: Inhibitory effect on TMPRSS4 serine protease activity using peptide substrate; format: biochemical; settings: 30 uM compound; kallikrein peptide substrate 100 μM; DMSO negative control; read-out: Intracellular protease activity Inhibition % 30 uM
Sequence (Q9NRS4 205-437): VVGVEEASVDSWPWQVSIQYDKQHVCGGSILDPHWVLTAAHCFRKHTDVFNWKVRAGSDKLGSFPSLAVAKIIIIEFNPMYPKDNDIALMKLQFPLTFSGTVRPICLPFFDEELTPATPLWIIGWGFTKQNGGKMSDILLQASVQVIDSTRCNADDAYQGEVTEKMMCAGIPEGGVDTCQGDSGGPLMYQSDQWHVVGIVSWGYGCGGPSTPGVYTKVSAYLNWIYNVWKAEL
# inhibition at 30 µM per record follows
Reply numerically in %, unit not repeated.

O=C(Nc1c(F)c(F)nc(F)c1F)c1cc(Cl)ccc1O :: 31

Consider the additional molecule presented here.
Could you share which inhibition at 30 µM value was measured for O=C(Nc1cc(C(F)(F)F)cc(C(F)(F)F)c1)c1cc(Cl)cc(Cl)c1O ?
100

###

test system: TMPRSS4 over-expressing colorectal cancer cell line SW480; test: Inhibitory effect on infiltration of cancer cells over-expressing TMPRSS4 (matrigel trans-well); type: cell-based; details: Homo sapiens; 0.8 uM; SW480 over-expressing TMPRSS4; 48 hours; read-out: Inhibition rate of target-expressing colorectal cancer cell activity (%, 0.1~2 uM)
measure: inhibition at 0.8 µM (%)
Reply numerically in %, unit not repeated.

O=C(Nc1ccc(Cl)c(C(F)(F)F)c1)c1cc(Cl)ccc1O [Example 32] :: 68

Could you share which inhibition at 0.8 µM value was measured for O=C(Nc1ccc(C(F)(F)F)cc1[N+](=O)[O-])c1cc(Cl)ccc1O [Example 36] ?
76

Could you share which inhibition at 0.8 µM value was measured for O=C(Nc1cc(C(F)(F)F)cc(C(F)(F)F)c1)c1cc2ccccc2cc1O [Example 8] ?
72

Could you share which inhibition at 0.8 µM value was measured for COc1cc(NC(=O)c2cc(Cl)ccc2O)cc(C(F)(F)F)c1 [Example 6] ?
49

###

target: TMPRSS4 serine protease (Homo sapiens, UniProt Q9NRS4); construct: TMPRSS4 serine protease domain (205th Val˜437th Leu) was cloned in pET21b/NdeI-XhoI; inferred from pET21b XhoI cloning and Ni-NTA purification) (C); made in house; host or cells: E. coli BL21 (DE3); experiment: Inhibitory effect on TMPRSS4 serine protease activity using peptide substrate; assay type: biochemical; conditions: 100 uM compound; kallikrein peptide substrate 100 μM; DMSO negative control; read-out: Intracellular protease activity Inhibition % 100 uM
measure: inhibition at 100 µM (%)
Reply numerically in %, unit not repeated.

O=C(Nc1ccccc1)c1cc(Cl)ccc1O [Example 59, 5-chloro-2-hydroxy-N-phenylbenzamide] :: 75

Could you share which inhibition at 100 µM value was measured for O=C(Nc1ccccn1)c1cc(Cl)ccc1O [Example 40] ?
11

Could you share which inhibition at 100 µM value was measured for O=C(Nc1ccc(Cl)c(C(F)(F)F)c1)c1cc(Cl)ccc1O [Example 32] ?
99

Could you share which inhibition at 100 µM value was measured for O=C(Nc1ccnc(Cl)c1)c1cc(Cl)ccc1O [Example 47] ?
21

Could you share which inhibition at 100 µM value was measured for N#Cc1ccc(NC(=O)c2cc(Cl)ccc2O)cc1 [Example 12] ?
69

Could you share which inhibition at 100 µM value was measured for O=C(Nc1ccc(Br)c(C(F)(F)F)c1)c1cc(Cl)ccc1O [Example 16] ?
98

Could you share which inhibition at 100 µM value was measured for N#Cc1ccc(NC(=O)c2cc(Cl)ccc2O)c(Cl)c1 [Example 27] ?
100

Could you share which inhibition at 100 µM value was measured for N#Cc1ccc(NC(=O)c2cc(Cl)ccc2O)cc1C(F)(F)F [Example 19] ?
100

Could you share which inhibition at 100 µM value was measured for O=C(Nc1cnc2ccccc2c1)c1cc(Cl)ccc1O [Example 25] ?
75

Could you share which inhibition at 100 µM value was measured for O=C(Nc1cc(Br)cc(C(F)(F)F)c1)c1cc(Cl)ccc1O [Example 22] ?
100

Could you share which inhibition at 100 µM value was measured for O=C(Nc1nc(C(F)(F)F)cs1)c1cc(Cl)ccc1O [Example 52] ?
100

Could you share which inhibition at 100 µM value was measured for O=C(Nc1cc(C(F)(F)F)cc(C(F)(F)F)c1)c1cc(Cl)ccc1O [Example 1] ?
100

Could you share which inhibition at 100 µM value was measured for O=C(Nc1ccc(Cl)cn1)c1cc(Cl)ccc1O [Example 42] ?
55

Could you share which inhibition at 100 µM value was measured for O=C(Nc1nccs1)c1cc(Cl)ccc1O [Example 51] ?
90

Could you share which inhibition at 100 µM value was measured for O=C(Nc1nnc(C(F)(F)F)s1)c1cc(Cl)ccc1O [Example 28] ?
100

Could you share which inhibition at 100 µM value was measured for O=C(Nc1c(F)c(F)nc(F)c1F)c1cc(Cl)ccc1O [Example 43] ?
51

Could you share which inhibition at 100 µM value was measured for O=C(Nc1ncc(C(F)(F)F)cc1Cl)c1cc(Cl)ccc1O [Example 46] ?
0

Could you share which inhibition at 100 µM value was measured for Cc1cc(C)nc(NC(=O)c2cc(Cl)ccc2O)n1 [Example 48] ?
0

Could you share which inhibition at 100 µM value was measured for O=C(Nc1ccc(Cl)nc1)c1cc(Cl)ccc1O [Example 45] ?
39
